For each entry below, report its fraction unbound value.
assayDetails: Mouse serum binding, equilibrium dialysis
Form rule: numeric answer, no unit written next to it.

Query string: Item O=C(Nc1nnc(C2CCCC2)o1)c1ccc(Oc2ccccc2)nc1 has what recorded fraction unbound?
Result string: 0.022

Query string: Now this one: O=C(Nc1nnc(-c2ccc(F)cc2)o1)c1ccc(OC2CCCC2)cc1
Result string: 0.001

Query string: And the next one, O=C(Nc1nnc(C2CCCCC2)o1)c1ccc(Oc2ccccc2)nc1 ?
Result string: 0.005

Query string: Request: CC1=CCN(C(=O)Nc2nnc(-c3ccc(F)cc3)o2)CC1
Result string: 0.051

Query string: O=C(Nc1nnc(-c2ccc(F)cc2)o1)c1ccc(Oc2ccccc2)nc1 ?
Result string: 0.002
